# STUDY TARGET: hTDO2 (Homo sapiens, UniProt P48775)
# Construct: endogenous in cells
# Sequence (P48775 whole entry): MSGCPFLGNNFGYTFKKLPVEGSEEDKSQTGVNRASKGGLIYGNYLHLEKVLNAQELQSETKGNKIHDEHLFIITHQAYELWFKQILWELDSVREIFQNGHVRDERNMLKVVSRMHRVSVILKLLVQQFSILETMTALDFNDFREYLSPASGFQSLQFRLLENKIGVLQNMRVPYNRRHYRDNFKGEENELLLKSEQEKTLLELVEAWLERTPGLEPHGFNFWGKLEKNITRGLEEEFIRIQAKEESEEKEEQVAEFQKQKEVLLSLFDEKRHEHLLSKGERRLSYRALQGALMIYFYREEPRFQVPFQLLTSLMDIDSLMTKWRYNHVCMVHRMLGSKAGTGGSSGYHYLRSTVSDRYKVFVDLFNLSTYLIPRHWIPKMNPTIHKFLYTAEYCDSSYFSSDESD
# PROTOCOL: Cellular assay for TDO2 activity determination in A172 cells
# TEST SETTINGS: human glioblastoma A172 cells naturally expressing hTDO2; overnight incubation; kynurenine by absorbance at 480 nm
pIC50: −log10 of the molar value.
READOUT: pIC50

>  <COMPOUND>
CC1c2cc(-c3c[nH]c4cc(F)ccc34)ccc2S(=O)(=O)N1CCc1n[nH]c(=O)o1 (single isomer, unassigned; (-)) [Example 133]

>  <pIC50>
6.42

$$$$
>  <COMPOUND>
CN1CC(N2Cc3cc(-c4c[nH]c5cc(F)ccc45)ccc3S2(=O)=O)C1

>  <pIC50>
6.36

$$$$
>  <COMPOUND>
O=S1(=O)NC(CCO)c2cc(-c3c[nH]c4cc(F)ccc34)ccc21 (single isomer, unassigned; (-)) [Example 29]

>  <pIC50>
6.90

$$$$
>  <COMPOUND>
COC(=O)NCC1NS(=O)(=O)c2ccc(-c3c[nH]c4cc(F)ccc34)cc21 (single isomer, unassigned; (-)) [Example 21]

>  <pIC50>
6.81

$$$$
>  <COMPOUND>
CC1c2cc(-c3c[nH]c4cc(F)ccc34)ccc2S(=O)(=O)N1CCC(=O)N1CCNCC1 (single isomer, unassigned; (-)) [Example 50]

>  <pIC50>
6.47

$$$$

I: CC1c2cc(-c3c[nH]c4cc(F)ccc34)ccc2S(=O)(=O)N1CC(N)=O (single isomer, unassigned; (-)) [Example 116]
II: CCOC(=O)NCCN1C(C)c2cc(-c3c[nH]c4cc(F)ccc34)ccc2S1(=O)=O (single isomer, unassigned; (-)) [Example 109]
III: CC(=O)N1CCC(N2C(C)c3cc(-c4c[nH]c5cc(F)ccc45)ccc3S2(=O)=O)C1 (single isomer, unassigned; (-)) [Example 76]
input: Task for the reader: rank each entry by its pIC50, from the minimum upward. Output spec: a listing of the labels in the requested order.
output: II, III, I

A: CC1c2cc(-c3c[nH]c4cc(F)ccc34)ccc2S(=O)(=O)N1CCS(C)(=O)=O (single isomer, unassigned; (-)) [Example 54]
B: CC1c2cc(-c3c[nH]c4cc(F)ccc34)ccc2S(=O)(=O)N1CC[S+](C)[O-] (single isomer, unassigned; (+)) [Example 55]
input: # query: argmin of pIC50 over A and B Let me know the label of the one you choose.
output: A

a: CN1CCC(N2Cc3cc(-c4c[nH]c5cc(F)ccc45)ccc3S2(=O)=O)CC1
b: CC1(C)NS(=O)(=O)c2ccc(-c3c[nH]c4cc(F)ccc34)cc21
input: Pick one: a or b . Which has the bigger pIC50 number? Let me know the label of the one you choose.
output: b

---

# STUDY TARGET: hTDO2 (Homo sapiens)
# Construct: endogenous in cells
# PROTOCOL: Cellular assay for TDO2 activity determination in A172 cells
# TEST SETTINGS: human glioblastoma A172 cells naturally expressing hTDO2; overnight incubation; kynurenine by absorbance at 480 nm
pIC50: −log10 of the molar value.
READOUT: pIC50

>  <COMPOUND>
CC1c2cc(-c3c[nH]c4cc(F)ccc34)ccc2S(=O)(=O)N1C[C@@]1(C)CCC(=O)N1 (single isomer, unassigned; (-)) [Example 84]

>  <pIC50>
6.41

$$$$
>  <COMPOUND>
CC1c2cc(-c3c[nH]c4cc(F)ccc34)ccc2S(=O)(=O)N1C1CCNC(=O)C1 (single isomer, unassigned; (+)) [Example 120]

>  <pIC50>
7.04

$$$$
>  <COMPOUND>
CC(=O)N(C)CC1NS(=O)(=O)c2ccc(-c3c[nH]c4cc(F)ccc34)cc21 (single isomer, unassigned; (+)) [Example 27]

>  <pIC50>
6.65

$$$$
>  <COMPOUND>
CC1c2cc(-c3c[nH]c4cc(F)ccc34)ccc2S(=O)(=O)N1CCS(N)(=O)=O (single isomer, unassigned; (+)) [Example 61]

>  <pIC50>
6.51

$$$$
>  <COMPOUND>
CNC(=O)C(N)CN1C(C)c2cc(-c3c[nH]c4cc(F)ccc34)ccc2S1(=O)=O (single isomer, unassigned; (-)) [Example 103]

>  <pIC50>
6.38

$$$$

I: CC1c2cc(-c3c[nH]c4cc(F)ccc34)ccc2S(=O)(=O)N1CC(N)=O (single isomer, unassigned; (+)) [Example 115]
II: CNC(=O)C(O)CN1C(C)c2cc(-c3c[nH]c4cc(F)ccc34)ccc2S1(=O)=O (single isomer, unassigned; (+)) [Example 97]
input: Pick one: I or II . Which has the bigger pIC50 number? Let me know the label of the one you choose.
output: II
